subject-of-test: Hfq (UniProt P0A6X3 1-102)
Sequence (P0A6X3 whole entry): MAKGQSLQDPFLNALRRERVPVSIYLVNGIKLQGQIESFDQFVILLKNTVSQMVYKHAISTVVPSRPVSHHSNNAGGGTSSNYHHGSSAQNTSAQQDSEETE
measurement-protocol: EMSA
measured-attribute: Kd
I'd appreciate it if you included the unit after the number.

Which Kd is reported for this binder? MicAstab (structured_RNA) RNA: GAAAGACGCGCAUUUGUUAUCAUCAUCCCUGGGAAAGCGACCGUUUCCCUGGCCACUCACGAGUGGCCUUUUAAAA 1.5 nM

Where these numbers come from: paper PMC3597676
